molecular target: T1, human SIRPβ1v2, extracellular domain, Avi-FXa-Fc tag (human, biotinylated); experiment: SPR, captured biotinylated antigen
T1 construct: also called huSIRPβ1v2
T1 sequence (chain, as listed by the source limits assumed): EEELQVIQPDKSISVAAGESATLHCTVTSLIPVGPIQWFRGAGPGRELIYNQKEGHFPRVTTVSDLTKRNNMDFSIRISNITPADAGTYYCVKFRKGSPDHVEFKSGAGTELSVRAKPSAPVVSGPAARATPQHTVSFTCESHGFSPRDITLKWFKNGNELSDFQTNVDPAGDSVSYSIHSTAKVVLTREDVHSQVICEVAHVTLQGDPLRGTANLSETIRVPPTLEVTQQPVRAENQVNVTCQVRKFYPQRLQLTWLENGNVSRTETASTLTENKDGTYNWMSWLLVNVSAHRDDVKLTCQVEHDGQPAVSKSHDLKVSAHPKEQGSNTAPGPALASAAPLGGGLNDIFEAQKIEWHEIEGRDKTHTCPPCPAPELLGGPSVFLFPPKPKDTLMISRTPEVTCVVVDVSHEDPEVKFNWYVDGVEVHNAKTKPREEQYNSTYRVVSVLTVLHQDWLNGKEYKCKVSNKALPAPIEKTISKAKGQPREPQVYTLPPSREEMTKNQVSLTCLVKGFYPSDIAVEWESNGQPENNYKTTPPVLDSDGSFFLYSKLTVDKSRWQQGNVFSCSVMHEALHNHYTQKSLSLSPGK
readout: Kd (nM)
Dear colleague, please return just the value in nM, with no unit written.

Find the measured Kd of humanized anti-SIRPα antibody 5 (antibody, human IgG1, kappa, L234A L235A, V domains shown, human IgG1 LALA, kappa; also called mAb 5) VH: RQLVESGGGLVQPGGSLRLSCAASGFSLSSHGISWVRQAPGKGLEYIGTIGTGVITYYASWAKGRFTGSKTSSTAYLQMTSLRAEDTAVYYCARGSAWNDPFDYWGQGTLVTVSS VL: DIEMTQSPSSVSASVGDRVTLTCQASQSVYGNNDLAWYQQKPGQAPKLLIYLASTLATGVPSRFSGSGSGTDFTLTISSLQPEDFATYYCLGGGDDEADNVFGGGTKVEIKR and report it.
2.97
